details: 298.15 K; 101 kPa; Liquid
ENDPOINT_LABEL: mass density (kg/m3)
Lab book: enter the figure in kg/m3, no units written.

The compound CCCCN showed mass density equal to 733.33

The compound CCCCCCCC[n+]1ccn(C)c1.F[B-](F)(F)F [1-methyl-3-octylimidazolium tetrafluoroborate] showed mass density equal to 1097.61

The compound CCCCCCn1cc[n+](C)c1.F[B-](F)(F)F [1-hexyl-3-methylimidazolium tetrafluoroborate] showed mass density equal to 1145.11

Now take the following compound into account.
The compound CCCCCCCCN showed mass density equal to 777.45

###

Collected mass density values appear next to each entry.
conditions: 308.15 K; 101 kPa; Liquid
Lab book: enter the figure in kg/m3, no units written.

Look over these answered cases.
The compound CCCCCCCC[n+]1ccn(C)c1.F[B-](F)(F)F [1-methyl-3-octylimidazolium tetrafluoroborate] showed mass density equal to 1090.9

The compound CCCCCCn1cc[n+](C)c1.F[B-](F)(F)F [1-hexyl-3-methylimidazolium tetrafluoroborate] showed mass density equal to 1137.71

The compound CCCCCCCCN [1-octanamine] showed mass density equal to 769.46

Now take the following compound into account.
The compound CCCCN [1-butanamine] showed mass density equal to 723.67
